- test_target: IAGlc synthase (Zea mays, UniProt Q41819)
- Construct: gene IAGLU; recombinant, N-terminally His-tagged, expressed in E. coli
- Sequence (Q41819 whole entry): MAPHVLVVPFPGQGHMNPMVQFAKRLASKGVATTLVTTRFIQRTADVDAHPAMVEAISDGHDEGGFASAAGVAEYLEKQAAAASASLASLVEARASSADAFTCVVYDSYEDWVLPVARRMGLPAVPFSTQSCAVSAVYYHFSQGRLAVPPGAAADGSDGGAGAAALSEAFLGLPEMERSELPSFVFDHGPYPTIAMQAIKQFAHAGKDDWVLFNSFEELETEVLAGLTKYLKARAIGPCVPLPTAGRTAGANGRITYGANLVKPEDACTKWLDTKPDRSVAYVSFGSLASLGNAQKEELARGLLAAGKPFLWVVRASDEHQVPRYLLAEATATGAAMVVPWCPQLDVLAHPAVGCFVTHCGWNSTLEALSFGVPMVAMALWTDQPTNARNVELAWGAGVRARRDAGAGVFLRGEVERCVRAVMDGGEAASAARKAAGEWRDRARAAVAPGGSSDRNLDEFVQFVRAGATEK
- protocol_details: […]IAA glucosylation TLC radioassay, Dixon plot
- Type: biochemical
pKi: −log10 of the molar value.

smiles_record: O=C(O)COc1ccc(Cl)cc1Cl
test_target: IAGlc synthase (Zea mays, UniProt Q41819)
pKi: 3.93
